Where do these numbers come from? They come from PubChem BioAssay (NCI).

- Tested on: TK-10 renal
- PROTOCOL_DETAILS: NCI-60 one-dose screen, 48 h
- ASSAY_SETUP: 10 µM
About 83,000 compounds went through this panel and 20% of them were active in at least one assay; those are over-represented in the sample as a whole. Calls of active or inactive are those of the source. The calls were made as follows: active = growth percent below 10; inactive = the rest.
Form entry, call: pick from active, inactive

Recorded results for 8 molecules are shown here.
Nc1ncn([C@@H]2O[C@H](CO)[C@@H](O)[C@H]2O)c(=O)n1	inactive
N#Cc1c(C#N)c(SSc2c(C#N)c(C#N)c(N)n2-c2ccccc2)n(-c2ccccc2)c1N	inactive
CNc1ncc(-c2ccc(C(F)(F)F)cc2)c(NC2CCCCCC2)n1	inactive
CC/C(=C(/c1ccc(OCCN(C)C)cc1)c1ccc(OC(=O)CCCCC(=O)c2c(C)[nH]c(/C=C3\N=C(c4ccc[nH]4)C=C3OC)c2C)cc1)c1ccccc1	inactive
Cc1cc(Cl)nc(N(CCCNc2ccnc3cc(Cl)ccc23)Cc2cccs2)n1	inactive
CCN(CC)CCCC(C)Nc1nc(-c2ccc(OC)cc2)nc2cc(Cl)ccc12 (centres undefined)	inactive
O=C1/C(=C\c2ccc(F)cc2)CN(C(=O)c2ccc([N+](=O)[O-])cc2)C/C1=C\c1ccc(F)cc1	inactive
O=C1ON=[N+](c2ccc(Cc3ccc([N+]4=NOC(=O)C4CN4CCOCC4)cc3)cc2)C1CN1CCOCC1 (centres undefined)	inactive

Can you look up the reported call for `CN1CCC(CNc2cc(C3(C(=O)Nc4cc(C(=O)Nc5ccc(Cl)c(C(F)(F)F)c5)ccc4F)CC3)ncn2)CC1` for me?
inactive

Can you look up the reported call for `O=C1/C(=C\c2ccc(F)cc2)CN(C(=O)c2ccccc2F)C/C1=C\c1ccc(F)cc1` for me?
active

Can you look up the reported call for `O=C(Nc1cccc(-n2cc(-c3ccncc3)c(-c3ccc(O)c(Cl)c3)n2)c1)c1ccc(Cl)c(Cl)c1` for me?
inactive

Can you look up the reported call for `COc1cc(Nc2ccnc(NCCNc3ccnc4cc(Cl)ccc34)n2)cc(OC)c1` for me?
inactive

Can you look up the reported call for `N=C(N)c1ccc(-c2ccc(-c3cccs3)s2)cc1` for me?
inactive

Can you look up the reported call for `COc1cc(Cl)cc(-c2nn(-c3cccc(NC(=O)c4ccc(N5CCOCC5)c(C(F)(F)F)c4)c3)cc2-c2ccncc2)c1` for me?
inactive

Can you look up the reported call for CC[C@H](C)C(=O)O[C@H]1CCC=C2C=C[C@H](C)C(CCC3C[C@@H](O)CC(=O)O3)[C@H]21 (some centres undefined) for me?
inactive

Can you look up the reported call for `CC(=O)N1C/C(=C/c2ccc(Cl)cc2)C(=O)/C(=C/c2ccc(Cl)cc2)C1` for me?
active

Can you look up the reported call for `O=C1CC[C@@H]2CCCC[C@@H]2C1` for me?
inactive

Can you look up the reported call for `COc1ccc(/C(=C2/O[C@@H]([C@H]3COC(C)(C)O3)[C@H]3OC(C)(C)O[C@@H]23)c2cc(OC)c(OC)c(OC)c2)cc1O` for me?
inactive

Can you look up the reported call for COc1cc(C2CC(c3ccc(Nc4ccnc5cc(Cl)ccc45)cc3)=NN2c2ccc(Cl)cc2)cc(OC)c1OC (centres undefined) for me?
inactive

Can you look up the reported call for `Cn1c([N+](=O)[O-])cnc1/C=C1\Oc2ccccc2C1=O` for me?
active

Can you look up the reported call for `CC[C@H]1CCC/C=C/[C@@H]2C[C@H](O)C[C@H]2[C@H](O)/C=C/C(=O)O1` for me?
active

Can you look up the reported call for `CCCCCCN1CCN(Cc2ccc(N(CC)CC)cc2)C(=O)C1=O` for me?
inactive

Can you look up the reported call for `CCCCN(CCCC)c1cc(C(=O)CCCCCN)c2ccccc2n1` for me?
inactive

Can you look up the reported call for `CCCC#CCN(CC)CC` for me?
inactive

* * *

- Tested on: SN12C renal
- PROTOCOL_DETAILS: NCI-60 one-dose screen, 48 h (100 = growth as untreated, 0 = no growth, -100 = all killed)
- ASSAY_SETUP: 10 µM
Compounds without any hit were thinned out: in the full panel of roughly 83,000, 20% have a hit.
METRIC: growth (%)
Your answer should be a plain number; it is taken to be in %.

// below: answered compounds
COc1ccccc1/C=C/C(=O)c1ccccc1	91.6
Cc1nc2ccc(CN(C)c3ccc(C(=O)N[C@@H](CCC(=O)O)C(=O)O)s3)cc2c(=O)[nH]1	47.7
CCCC1(CC(=O)O)OCCc2c1[nH]c1ccccc21 (stereo unspecified)	98
O=c1[nH]c2ccc(Cl)cc2c2ccccc12	87.8
COc1cc(C2CC(c3ccc(Nc4ccnc5cc(Cl)ccc45)cc3)=NN2c2ccc(Cl)cc2)cc(OC)c1OC (stereo unspecified)	59.5
COc1ccc(-c2nc3ccccn3c2-c2nnc(-c3cc(OC)c(OC)c(OC)c3)o2)cc1	69.7
CCCCCCCC(C)NCCO (stereo unspecified)	112
CSc1nc(=O)n(Cc2ccc(F)cc2)c(=O)n1Cc1ccc(C)cc1	96.3
N#CCCN(NC(=O)OCc1ccccc1)C(=O)OCc1ccccc1	106
CCOC(=O)N1C/C(=C/c2ccc(F)cc2)C(=O)/C(=C/c2ccc(F)cc2)C1	-43.8

What growth value was documented for this compound, `CCOC(=O)C(=Cc1ccc(Br)cc1)C(=O)OCC` ?
-21

What growth value was documented for this compound, `CC1(C)N=C(N)N=C(N)N1c1ccc(CCc2ccccc2)c(Cl)c1` ?
18.9

What growth value was documented for this compound, `COc1ccc(-c2nnc(-c3c(-c4ccccc4)nc4ncccn34)o2)cc1OC` ?
97.3

What growth value was documented for this compound, `COC(=O)[C@@H]1[C@H](O)[C@H](C)[C@H](O)[C@@](C)(O)/C=C\C=C(C)C(=O)Nc2c(C)c(OC(C)=O)c3c(c2O)C(=O)C(C)=C2OCOC(=C23)C(C)=C[C@@](C)(O)[C@H](O)[C@@H](C)[C@H]1OC(C)=O` ?
108

What growth value was documented for this compound, `COc1ccc(-n2c(SCc3cc(OC)c(OC)c(OC)c3)nc3ccc(C)cc3c2=O)cc1` ?
82.2

What growth value was documented for this compound, CCCCCCCCCCCCC1C/C=C\CCCC(=O)O1 (stereo unspecified) ?
119

What growth value was documented for this compound, `N#Cc1ncc(Br)c(NC2CCCCCC2)n1` ?
93.5

What growth value was documented for this compound, `N=C1c2nc3n(c2C(=O)c2nc4n(c21)CCCC4)CCCC3` ?
-86.1

What growth value was documented for this compound, `CN(CCc1ccccn1)c1ccccc1` ?
104

What growth value was documented for this compound, `COc1cc(-c2cc(/C=C3\C(=O)Nc4ccc(Cl)cc43)[nH]n2)cc(OC)c1OC` ?
7

What growth value was documented for this compound, Cc1[nH]nc2c1C(c1cnn(C)c1)C(C#N)=C(N)O2 (stereo unspecified) ?
103

* * *

- Tested on: BT-549 breast
- PROTOCOL_DETAILS: NCI-60 one-dose screen, 48 h (100 = growth as untreated, 0 = no growth, -100 = all killed)
- ASSAY_SETUP: 10 µM
Compounds without any hit were thinned out: in the full panel of roughly 83,000, 20% have a hit.
One threshold, 70%, splits the recorded growth values: lower ones are label 1, equal or higher ones are label 0.

Recorded results for 5 compounds are shown here.
O=C(Nc1nc(-c2ccccc2Cl)cs1)c1cc(-c2ccc(Cl)cc2)nc2ccc(Cl)cc12	label 1
COc1cc2c(cc1OC)N(CCO)C1=C(C(=O)OC1)C2c1ccc(Cl)c(Cl)c1 (centres undefined)	label 0
O=[N+]([O-])c1ccc(N/N=C/c2cccc3ccccc23)nc1	label 0
CCN1CCCC1CNC(=O)c1ncc(-c2ccc(C(F)(F)F)cc2)c(NC2CCCCCC2)n1 (centres undefined)	label 0
COc1ccc(/C=C2/CN(C(=O)c3ccc(C)cc3)C/C(=C\c3ccc(OC)cc3)C2=O)cc1	label 0

Report whether reported growth is lower than 70% (strictly) for `CC(C)(C)c1ccc(N2CSC(=S)N(c3ccc(C(C)(C)C)cc3)C2)cc1`
label 0

Report whether reported growth is lower than 70% (strictly) for `Nc1nc(N=Nc2ccc(O)cc2)cc(=O)[nH]1`
label 0

* * *

- Tested on: NCI-H23 lung
- PROTOCOL_DETAILS: NCI-60 one-dose screen, 48 h (100 = growth as untreated, 0 = no growth, -100 = all killed)
- ASSAY_SETUP: 10 µM
This is part of a sample that, as a whole, favours compounds with a hit. Of some 83,000 tested, about 20% had one in any assay.
Grouping key: growth. Bins: b0 = under 30%, b1 = from 30% up to 70%, b2 = 70% and over

Recorded results for 5 compounds are shown here.
ClCC#CCSc1ncnc2c1ncn2CC#CCCl	b0
CCCCCCc1cc(N=Nc2ccc(S(=O)(=O)Nc3cc(C)nc(C)n3)cc2)c(O)cc1O	b2
CC(C)(C)c1ccc(N2CSC(=S)N(c3ccc(C(C)(C)C)cc3)C2)cc1	b2
Cn1c([N+](=O)[O-])cnc1/C=C1\Oc2cc(Cl)ccc2C1=O	b0
COc1cc(/C=C2\CCCC3=C2N=C2SC=NN2C3c2cc(OC)c(OC)c(OC)c2)cc(OC)c1OC (stereo not drawn)	b0

The entry to classify is `Oc1[nH]c2ccc(Cl)cc2c1/C=c1/ccc2c(c1)N=C(c1cccs1)N=2` ; which class holds it?
b1

The entry to classify is `CCOC(=O)N1C/C(=C/c2ccc(F)cc2)C(=O)/C(=C/c2ccc(F)cc2)C1` ; which class holds it?
b0

The entry to classify is `Cc1cc(C)c2c(n1)sc1c(Nc3ccc(Cl)cc3)ncnc12` ; which class holds it?
b0

The entry to classify is `Cc1nc2ccccc2c(N)c1-c1cc(C)c2c(C)nc3ccccc3c2n1` ; which class holds it?
b1

The entry to classify is `CC/C(=C(/c1ccc(OCCN(C)C)cc1)c1ccc(OC(=O)CCC(=O)c2c(C)[nH]c(/C=C3\N=C(c4ccc[nH]4)C=C3OC)c2C)cc1)c1ccccc1` ; which class holds it?
b1

The entry to classify is `O=[P@@]1(c2ccccc2)O[C@H](COCc2ccccc2)[C@@H](OCc2ccccc2)[C@H](OCc2ccccc2)[C@H]1O` ; which class holds it?
b1

The entry to classify is `Cc1cccc(NC2=C(C#N)C(=O)NC3(CCCC3)S2)c1` ; which class holds it?
b2

The entry to classify is `COc1cc(Cc2cc(-c3ccc(Cl)cc3)n[nH]c2=O)ccc1O` ; which class holds it?
b2

The entry to classify is `Cc1ccc(-c2n[nH]c(=O)c3noc(-c4ccc(C)cc4)c23)cc1` ; which class holds it?
b1

The entry to classify is `COC(=O)c1ccc(=O)oc1` ; which class holds it?
b2

The entry to classify is C=C(NC(=O)C(=C)NC(=O)c1csc(C2=NC3c4csc(n4)C4NC(=O)c5csc(n5)C(C(C)(O)C(C)O)NC(=O)C5CSC(=N5)/C(=C/C)NC(=O)C(C(C)O)NC(=O)c5csc(n5)C3(CC2)NC(=O)C(C)NC(=O)C(=C)NC(=O)C(=C)NC(=O)C(C(C)C)NC2C=Cc3c(C(C)O)cc(nc3C2O)C(=O)OC4C)n1)C(N)=O (stereo not drawn) ; which class holds it?
b0
